B1: Gamma-crystallin S, residues 96 to 176; numbered along this chain, P22914 (parent)
chain: IQIFEKGDFSGQMYETTEDCPSIMEQFHMREIHSCKVLEGVWIFYELPNYRGRQYLLDKKEYRKPIDWGAASPAVQSFRRI

# Variants of: B1
# ASSAY_NOTES: abundance fitness (aPCA) (normalised: wild type 0, dead -1); higher = more abundant; growth selection in yeast, the domain comes from the species named
# CONDITION_SET: Homo sapiens
This section presents variants with their documented abundance fitness values.
MEASURED_ENDPOINT: abundance fitness

W68R: -0.169
K64Q: -0.063
E31K: -0.034
T17Y: -0.352
Y14P: -0.993
E61M: -0.028
T17Q: -0.005
C20R: -0.235
V75W: -0.105
M13F: -0.04
E46V: -0.386
